target: Jak2 (UniProt O60674); assay: phosphorylation enrichment, bacterial display (enrichment ratio); higher = better substrate or ligand; peptides without Tyr show the background
Sequence (O60674 whole entry, looked up): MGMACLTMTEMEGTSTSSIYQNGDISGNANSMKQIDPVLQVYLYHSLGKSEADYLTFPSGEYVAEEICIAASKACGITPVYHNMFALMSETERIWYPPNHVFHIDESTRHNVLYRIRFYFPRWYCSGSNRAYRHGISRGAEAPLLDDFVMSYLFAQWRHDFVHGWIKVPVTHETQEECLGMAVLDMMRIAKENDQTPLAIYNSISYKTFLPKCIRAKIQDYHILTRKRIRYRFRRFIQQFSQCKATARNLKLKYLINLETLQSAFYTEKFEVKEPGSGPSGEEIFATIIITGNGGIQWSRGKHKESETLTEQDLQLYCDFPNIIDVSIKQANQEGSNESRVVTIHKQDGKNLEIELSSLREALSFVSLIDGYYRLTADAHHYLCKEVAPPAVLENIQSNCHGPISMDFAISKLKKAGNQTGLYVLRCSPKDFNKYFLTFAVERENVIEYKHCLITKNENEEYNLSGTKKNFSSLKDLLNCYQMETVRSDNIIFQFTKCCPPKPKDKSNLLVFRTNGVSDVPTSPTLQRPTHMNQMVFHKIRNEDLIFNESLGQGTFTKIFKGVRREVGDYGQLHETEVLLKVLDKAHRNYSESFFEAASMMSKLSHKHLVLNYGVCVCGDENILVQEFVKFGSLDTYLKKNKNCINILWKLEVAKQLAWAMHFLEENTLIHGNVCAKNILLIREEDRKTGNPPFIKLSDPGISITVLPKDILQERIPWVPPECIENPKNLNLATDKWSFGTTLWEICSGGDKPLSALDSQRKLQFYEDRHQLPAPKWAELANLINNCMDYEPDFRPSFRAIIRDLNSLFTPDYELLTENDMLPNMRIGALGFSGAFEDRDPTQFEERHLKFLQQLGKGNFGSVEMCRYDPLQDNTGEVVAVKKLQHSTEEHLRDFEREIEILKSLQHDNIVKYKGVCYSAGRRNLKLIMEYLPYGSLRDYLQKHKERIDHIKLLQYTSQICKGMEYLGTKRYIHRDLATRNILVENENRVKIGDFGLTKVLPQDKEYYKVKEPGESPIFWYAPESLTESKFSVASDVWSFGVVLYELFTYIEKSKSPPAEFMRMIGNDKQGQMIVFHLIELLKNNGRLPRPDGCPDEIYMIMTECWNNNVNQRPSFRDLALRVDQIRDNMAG
quantity-measured: phosphorylation enrichment
Answer with a number only.

For orientation, consider the following solved cases.
>>> result("SCRENYSYSEE [LEMD3_Y258_D260Y]")
0.892
>>> result("KEIHAYRKLLE [LMNA_Y376_M371K]")
0.59
>>> result("MTYMFYRENLR [NLRP14_Y443_V441M]")
1.1
>>> result("TSYSGYRCHRH [NKAPL_Y94_Y96C]")
0.678
>>> result("AAAAVYTFLPD [MYORG_Y36_M35V]")
0.979

Supply phosphorylation enrichment value. Item: IRRWVYPLTPE [EIF2B5_Y319]
0.732

Supply phosphorylation enrichment value. Item: HRGSLYLAIEY [TEK_Y899_Y897S]
2.2

Supply phosphorylation enrichment value. Item: ADFPDCKFRPR [SOX11_Y116_Y116C_YF]
0.965

Supply phosphorylation enrichment value. Item: YIATQYSLCPR [LBR_Y166_R169C]
0.873

Supply phosphorylation enrichment value. Item: ETLLYYGYRRS [POR_Y564_C566Y]
5.24

Supply phosphorylation enrichment value. Item: DLQDENDFKCK [STAT1_Y170_Y170N]
1.55

Supply phosphorylation enrichment value. Item: PASWTYVRWFD [PTDSS1_Y274]
1.79

Supply phosphorylation enrichment value. Item: LERFIYNPEEF [HLA-DPB1_Y59_R61P_YF]
1.32

Supply phosphorylation enrichment value. Item: LSRDVYEEDSF [RET_Y900_YF]
1.7

====

The reader will find reported phosphorylation enrichment values listed item by item below.
biological target: MERTK (UniProt Q12866); experiment: phosphorylation enrichment, bacterial display (enrichment ratio); higher = better substrate or ligand; peptides without Tyr show the background
Sequence (Q12866 whole entry, looked up): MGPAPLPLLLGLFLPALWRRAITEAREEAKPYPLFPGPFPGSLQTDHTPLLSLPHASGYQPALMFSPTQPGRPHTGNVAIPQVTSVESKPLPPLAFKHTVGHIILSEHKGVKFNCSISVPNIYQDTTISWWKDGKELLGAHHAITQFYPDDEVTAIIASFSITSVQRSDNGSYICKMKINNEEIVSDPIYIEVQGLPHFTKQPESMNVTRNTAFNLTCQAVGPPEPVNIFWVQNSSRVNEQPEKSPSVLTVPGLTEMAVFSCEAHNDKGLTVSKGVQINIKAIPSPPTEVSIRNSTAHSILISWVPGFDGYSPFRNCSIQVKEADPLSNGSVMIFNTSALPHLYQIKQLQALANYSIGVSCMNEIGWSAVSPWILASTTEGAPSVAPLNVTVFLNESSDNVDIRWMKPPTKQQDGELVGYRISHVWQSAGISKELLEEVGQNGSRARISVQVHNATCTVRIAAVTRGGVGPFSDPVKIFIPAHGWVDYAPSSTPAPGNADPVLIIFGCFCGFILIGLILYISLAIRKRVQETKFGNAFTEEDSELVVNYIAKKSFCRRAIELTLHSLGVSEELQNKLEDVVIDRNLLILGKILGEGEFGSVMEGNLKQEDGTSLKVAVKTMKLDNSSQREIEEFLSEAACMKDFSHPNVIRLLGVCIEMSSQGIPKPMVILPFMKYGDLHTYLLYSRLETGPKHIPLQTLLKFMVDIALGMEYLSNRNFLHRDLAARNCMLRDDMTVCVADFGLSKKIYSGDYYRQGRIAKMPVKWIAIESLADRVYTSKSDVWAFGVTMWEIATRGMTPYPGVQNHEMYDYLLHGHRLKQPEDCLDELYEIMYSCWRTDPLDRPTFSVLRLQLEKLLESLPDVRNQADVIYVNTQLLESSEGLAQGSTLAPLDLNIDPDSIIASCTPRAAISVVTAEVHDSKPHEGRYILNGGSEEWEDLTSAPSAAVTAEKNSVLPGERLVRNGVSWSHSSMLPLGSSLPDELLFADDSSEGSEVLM
Answer with a number only.

For orientation, consider the following solved cases.
>>> result("PANTVYSTVEI [SLAMF7_Y304]")
7.46
>>> result("KKHIPYSEHKS [CSNK1G2_Y206_R207S]")
0.606
>>> result("VHSGTYQVMVR [MYBPC3_Y1043_T1046M]")
1.27
>>> result("AAFNKYDQERF [CDC73_Y293_R292K_YF]")
0.396
>>> result("NGSKGYAYVHF [PABPC5_Y147]")
0.519

Supply phosphorylation enrichment value. Item: RFLFFYSFLLK [PTEN_Y178_V175L_YF]
0.782

Supply phosphorylation enrichment value. Item: DPEGAYTTRGG [EPHA3_Y779_A777G]
0.412

Supply phosphorylation enrichment value. Item: TAGFSYEKWEI [TEC_Y360]
0.549

====

tested on: Fer (mouse); assay: phosphorylation enrichment, bacterial display (enrichment ratio); higher = better substrate or ligand; peptides without Tyr show the background
quantity-measured: phosphorylation enrichment
Answer with a number only.

Supply phosphorylation enrichment value. Item: FSGDCYRIQGR [DDR2_Y741_Y740C_YF]
0.493

Supply phosphorylation enrichment value. Item: DPLLTYWFPPK [LMNA_Y481_R482W]
0.933

Supply phosphorylation enrichment value. Item: ALEKTYNTYRS [B4GALNT2_Y538]
0.35

Supply phosphorylation enrichment value. Item: GIVTGYLVLKE [DNMT3B_Y588_A585V]
0.647

Supply phosphorylation enrichment value. Item: VPHECYAKVFD [ALB_Y394_D389V]
0.542

Supply phosphorylation enrichment value. Item: FDFKKYGKGLR [ZNF445_Y433_YF]
0.304

====

biological target: Fyn (UniProt P06241); experiment: phosphorylation enrichment, bacterial display (enrichment ratio); higher = better substrate or ligand; peptides without Tyr show the background
Sequence (P06241 whole entry, looked up): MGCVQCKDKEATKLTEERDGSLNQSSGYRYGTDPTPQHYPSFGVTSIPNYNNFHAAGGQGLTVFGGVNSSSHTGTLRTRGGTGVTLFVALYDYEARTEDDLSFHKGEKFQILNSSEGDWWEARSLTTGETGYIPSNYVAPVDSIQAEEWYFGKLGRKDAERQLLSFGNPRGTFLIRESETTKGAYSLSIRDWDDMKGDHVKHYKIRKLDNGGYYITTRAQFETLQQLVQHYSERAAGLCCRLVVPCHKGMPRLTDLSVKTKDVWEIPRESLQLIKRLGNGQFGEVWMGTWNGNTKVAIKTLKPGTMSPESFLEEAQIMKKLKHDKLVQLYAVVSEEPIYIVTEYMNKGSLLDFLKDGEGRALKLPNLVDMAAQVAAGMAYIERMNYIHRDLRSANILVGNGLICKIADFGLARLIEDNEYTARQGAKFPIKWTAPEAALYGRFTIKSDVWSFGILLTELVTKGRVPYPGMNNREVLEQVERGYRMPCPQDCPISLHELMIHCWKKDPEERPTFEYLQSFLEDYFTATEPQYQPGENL
# phosphorylation enrichment binned as lower range: < 0.5; middle range: ≥ 0.5 and < 0.6; upper range: ≥ 0.6

These recorded examples may help you get a feel for the data.
>>> cat("SIKGKYVTALY [KCNH2_Y611_D609G]")
"lower range"
>>> cat("TQTPPYVKKHP [LARP1B_Y457]")
"lower range"
>>> cat("ERDTVYSSSGV [NELL2_Y350_N347D]")
"upper range"
>>> cat("LWQTIYNLEAE [TNNT2_Y251_S249T]")
"upper range"
>>> cat("YSNKLHYQLEQ [PDPR_Y109_Y109H]")
"middle range"

Band of HSRTRYERNIE [F2_Y434] ?
lower range

Band of SNNYIYTTLGV [FAM83B_Y639_K640T] ?
upper range

Band of LFLALYTGLVH [PIGB_Y402] ?
upper range

Band of ETPSEYLEIVR [TMEM130_Y412] ?
middle range

Band of ETAENYLGHTA [HSPA9_Y181] ?
lower range

Band of IENKLYGMSDS [RET_Y1062_P1067S] ?
lower range

====

target: SHP2-C SH2; experiment: SH2 binding enrichment of the phosphorylated peptide, bacterial display (enrichment ratio); higher = better substrate or ligand; peptides without Tyr show the background;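 further: peptide library displayed on the E. coli surface as eCPX fusions, selected cells deep-sequenced, score is each peptide's frequency after selection divided by its frequency in the input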
The reader will find reported SH2 binding enrichment values listed item by item below.
Answer with a number only.

For orientation, consider the following solved cases.
>>> result("LTERDYSFVTT [ACTG2_Y199_G198D]")
1.37
>>> result("LTRDIYKNDYY [ROS1_Y2110_A2106T]")
0.906
>>> result("SSDKVCAHQMV [MLH1_Y379_Y379C]")
0.705
>>> result("WISNRYLDFSS [PRPH2_Y184]")
0.688
>>> result("SDFFAYSPVRE [H6PD_Y449_YF]")
1.06
>>> result("EHTTLYSNNST [KANSL1_Y223]")
0.863

Turning now to a further sequence:
Supply SH2 binding enrichment value. Item: LGSVVYAQSKE [KCNQ2_Y226_H228Q]
1.6

====

target: FGFR3 (UniProt P22607); assay: phosphorylation enrichment, bacterial display (enrichment ratio); higher = better substrate or ligand; peptides without Tyr show the background
Sequence (P22607 whole entry, looked up): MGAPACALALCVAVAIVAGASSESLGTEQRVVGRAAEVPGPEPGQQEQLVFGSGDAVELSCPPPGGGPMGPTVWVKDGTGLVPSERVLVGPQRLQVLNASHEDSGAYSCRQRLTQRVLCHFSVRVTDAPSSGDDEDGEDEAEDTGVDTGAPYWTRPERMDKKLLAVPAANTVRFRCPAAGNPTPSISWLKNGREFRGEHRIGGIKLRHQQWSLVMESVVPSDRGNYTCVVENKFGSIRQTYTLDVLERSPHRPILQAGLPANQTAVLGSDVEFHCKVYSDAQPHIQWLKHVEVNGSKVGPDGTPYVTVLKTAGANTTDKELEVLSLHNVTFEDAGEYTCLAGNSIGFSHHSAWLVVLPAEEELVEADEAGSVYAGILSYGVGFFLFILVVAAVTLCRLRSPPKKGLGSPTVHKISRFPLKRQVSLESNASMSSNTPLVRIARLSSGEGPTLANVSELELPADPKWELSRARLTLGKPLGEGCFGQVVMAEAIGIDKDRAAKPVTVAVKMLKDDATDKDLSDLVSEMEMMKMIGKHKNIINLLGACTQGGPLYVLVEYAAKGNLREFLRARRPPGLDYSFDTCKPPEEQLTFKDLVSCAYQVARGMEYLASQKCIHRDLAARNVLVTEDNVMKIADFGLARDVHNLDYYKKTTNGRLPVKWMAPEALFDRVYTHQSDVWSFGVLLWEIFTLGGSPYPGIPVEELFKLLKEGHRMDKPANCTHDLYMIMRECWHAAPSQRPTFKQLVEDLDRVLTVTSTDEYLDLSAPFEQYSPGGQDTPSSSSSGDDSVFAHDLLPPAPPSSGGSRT
quantity-measured: phosphorylation enrichment
Answer with a number only.

For orientation, consider the following solved cases.
>>> result("RQEEEYKRLSE [SFSWAP_Y133]")
1.22
>>> result("GTYEDYVEGLR [MYL6_Y89]")
0.743
>>> result("VPVPGYTKVPE [SPRR3_Y146_L149V]")
0.789
>>> result("TISPFYRQSLF [CRYAA_Y48_YF]")
0.489
>>> result("TQTPPYVKKHP [LARP1B_Y457]")
0.521
>>> result("VAVVDYVEPSP [TXNRD2_Y70]")
0.683
>>> result("IYHLSYHHNCE [PDE6B_Y227_L228H]")
1.17
>>> result("SLHPGYNFRYA [P2RX7_Y291_Y288H]")
0.545
>>> result("IKKLIYVFLVI [JAGN1_Y42_H44Y_YF]")
0.797
>>> result("LPPGTYPSDFT [UNC5B_Y511_A516T]")
0.85

Supply phosphorylation enrichment value. Item: CTTIHKNYMCN [TP53_Y234_Y234K]
0.56

Supply phosphorylation enrichment value. Item: SSVAGYACLAF [MVD_Y131_A128V_YF]
0.792

====

target: Jak2 (UniProt O60674); experiment: phosphorylation enrichment, bacterial display (enrichment ratio); higher = better substrate or ligand; peptides without Tyr show the background
quantity-measured: phosphorylation enrichment
Answer with a number only.

For orientation, consider the following solved cases.
>>> result("NFRTTCVNANE [KCNH2_Y475_Y475C]")
0.979
>>> result("KVALVYGQMNQ [ATP5F1B_Y269_E274Q]")
0.841
>>> result("AGREIYESEKC [TTN_Y4424_D4427E]")
0.846
>>> result("VGSEDYGWDLT [SPTAN1_Y1792_R1794W]")
0.967
>>> result("MPLTEYLKQIK [CNGB3_Y200_R203Q]")
0.749
>>> result("ADDSFYTARSA [ZAP70_Y493_YF]")
0.877
>>> result("RLQEGYDHSYY [ESD_Y258]")
1.05
>>> result("LTERDYSFVTT [ACTG2_Y199_G198D]")
1.27

Supply phosphorylation enrichment value. Item: NHFKICNLCAE [PTEN_Y68_Y68C_YF]
0.682

Supply phosphorylation enrichment value. Item: LLANAYIYDVQ [L1CAM_Y418_V421D]
1.22

Supply phosphorylation enrichment value. Item: GFWPRYVKVGS [NOG_Y172_R167G]
0.695

Supply phosphorylation enrichment value. Item: QNWELYSEGLG [CNKSR1_Y665_R662W]
1.13

Supply phosphorylation enrichment value. Item: TNLVPYPCIHF [TUBA1A_Y262_R264C]
0.753

Supply phosphorylation enrichment value. Item: CTTIHYNYMCN [TP53_Y234]
0.661

Supply phosphorylation enrichment value. Item: LAAPKYKLNVD [SMARCA2_Y1190_A1188P]
0.353
